Tested on: IL-1β, human whole blood
PROTOCOL SUMMARY: Whole blood assay for IL-1β production
Format: cell-based
RUN PARAMETERS: Homo sapiens, Table 27; read-out: Whole human blood IC50
RECORDED METRIC: IC50 (µM)

a: Cc1cc(C(=O)N[C@H]2CN(C(=O)COc3ccccc3)c3ccccc3N(CC(=O)N[C@H](C=O)CC(=O)O)C2=O)cc(C)c1O [Compound 721]
b: CCOC(=O)C(=O)N1C[C@H](NC(=O)c2cc(C)c(O)c(C)c2)C(=O)N(CC(=O)N[C@H](C=O)CC(=O)O)c2ccccc21 [Compound 729]
c: CC(=O)N[C@@H](CC(=O)O)C(=O)N[C@H]1CN(C(=O)CO)c2ccccc2N(CC(=O)N[C@H](C=O)CC(=O)O)C1=O [Compound 730]
d: O=C[C@H](CC(=O)O)NC(=O)CN1C(=O)[C@@H](NC(=O)c2nccc3ccccc23)CN(C=O)c2ccccc21 [Compound 698]
// rank above by IC50: first = highest number Give the labels in the order requested.
d, c, a, b
(d: 13.5 µM, c: 8 µM, a: 5 µM, b: 2.8 µM)

a: COC(=O)N1C[C@H](NC(=O)c2cc(C)c(O)c(C)c2)C(=O)N(CC(=O)N[C@H](C=O)CC(=O)O)c2ccccc21 [Compound 723]
b: Cc1cc(C(=O)N[C@H]2CN(C(=O)C(C)C)c3ccccc3N(CC(=O)N[C@H](C=O)CC(=O)O)C2=O)cc(C)c1O [Compound 725]
Decide: a or b , by lowest recorded IC50. Mark your selection by writing its label.
a
(a: 2 µM, b: 3 µM)
